- measurement_target: T1, cynomolgus monkey MerTK (cynomolgus monkey, UniProt A0A2K5V1H9 32-505)
- T1 construct: Soluble analyte in SPR; also called Cyno MerTK
- T1 sequence: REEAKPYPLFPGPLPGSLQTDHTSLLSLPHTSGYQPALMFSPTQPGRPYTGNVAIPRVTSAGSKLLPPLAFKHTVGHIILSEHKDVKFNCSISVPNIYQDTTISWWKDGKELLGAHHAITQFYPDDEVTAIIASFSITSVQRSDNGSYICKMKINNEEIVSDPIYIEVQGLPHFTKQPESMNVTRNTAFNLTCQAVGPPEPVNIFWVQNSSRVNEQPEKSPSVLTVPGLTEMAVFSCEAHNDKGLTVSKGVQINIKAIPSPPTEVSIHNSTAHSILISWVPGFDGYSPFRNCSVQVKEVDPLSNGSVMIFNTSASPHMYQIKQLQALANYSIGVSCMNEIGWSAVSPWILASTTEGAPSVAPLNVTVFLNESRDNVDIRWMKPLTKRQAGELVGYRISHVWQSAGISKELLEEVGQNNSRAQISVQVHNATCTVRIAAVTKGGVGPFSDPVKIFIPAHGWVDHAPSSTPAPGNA
- assay_procedure: SPR BIAcore T200, Ab captured, 25C
pKd listing for selected binders.
# pKd: negative log10 of molar concentration; output just the value

Completed entries (count: 3):
>  <binder>
Rbt10F7 (antibody, V domains shown, Recombinant rabbit monoclonal antibody, Expi293, protein A purified) VH: QSVEESGGRLVTPGTPLTLTCTVSGFSLSGYAMSWVRQAPGKGLEYIGVISSSGSSYYPSWAKGRFTISKTSTTVDLQITSPTTEDTATYFCARVQFYVGYAVYGYGIIDRLDLWGQGTLVTVSS VL: AAVLTQTPSPVSATMGGTVSISCQSSKSVYNNNWLSWYQQKPGQPPKLLIYRASTLESGVPSRFKGSGSGTQFTLTISDVHCDDAATYFCAGGYSSSSSANAFGGGTEVVVK

>  <property>
pKd

>  <experimental_result>
8.33

$$$$
>  <binder>
Rbt8F4 (antibody, V domains shown, Recombinant rabbit monoclonal antibody, Expi293, protein A purified) VH: QSVQESGGRLVTPGTPLTLTCTVSGFSLINYPMSWVRQAPGKGLEWIGVISSTGGTNYASWAKGRFTISKTSTTVDLKITSPTTEDTATYFCARVDFLVYLGGAYIIWGLDLWGQGTLVTVSS VL: AAVLTQTPSPVSAAVGGTVTINCQSSPNIYSNYLSWFQQKPGQPPKILIYGASTLASGVPSRFKGSGSGTQFTLTISDVQCDDAATYYCAGGYSDSSEAYAFGGGTEVVVK

>  <property>
pKd

>  <experimental_result>
7.83

$$$$
>  <binder>
Rbt22C4 (antibody, V domains shown, Recombinant rabbit monoclonal antibody, Expi293, protein A purified) VH: QSVEESGGRLVTPGTPLTLTCTVSGFSLSTYSMSWVRQAPGKGLEWLGIVSVAIDPVYATWARGRFTISRTSTTVNLKITSPTTEDTATYFCVRVAFSTNGIPHRLDLWGQGTLVTVSS VL: AQVLTQTASSVSAAVGGTVTISCQSSPSVYNHNWLSWYQQKPGQPPKLLIYEASKLASGVPSRFSGSGSGTQFTLTISDVQCDEAATYYCAGGFSSGSDSFAFGGGTEVVVT

>  <property>
pKd

>  <experimental_result>
7.09

$$$$

Next item in the queue.
Data request, read-out pKd, for Rbt18G7 (antibody, V domains shown, Recombinant rabbit monoclonal antibody, Expi293, protein A purified) VH: QSLEESGGRLVTPGTPLTLTCTVSGIDLSSYALGWVRQAPGKGLEYIGIISSTGTTYYATWAKGRFTISKTSSTTVDLKITGPTTEDTATYFCARGAYAGYVAFGPYYFHIWGPGTLVTISL VL: DIVMTQTPASVEAAVGGTVTIKCQASQSISNFLAWYQQKPGQPPKVLIYAASHLASGVPSRFKGSGSGTQFTLTISDLECADAATYYCQSYFYSSTSIYNAFGGGTEVVVR
8.37

All values here come from patent US20220135701A1.
